Measured combination Emax by item
- System: AU565 (Breast Carcinoma)
- ASSAY NAME: combination Emax (second highest fraction inhibited in the dose matrix, 72 h); higher = more inhibition; extreme values may be limits of the assay
Just the number, please, no unit attached.

MOLECULE	TARGET DESC	ENDPOINT VALUE
Cc1cc2ncnn2cc1Nc1ncc2c(n1)n(C1CCOCC1)c(=O)n2C [AZD7648] + C=CCn1c(=O)c2cnc(Nc3ccc(N4CCN(C)CC4)cc3)nc2n1-c1cccc(C(C)(C)O)n1 [AZD1775] (first compound max 10 µM, partner max 1 µM)	AU565 (Breast Carcinoma)	0.547
Cc1c2c(nn1C)CSCc1cc(n(C)n1)CSc1cc(c3ccccc3c1)OCCCc1c(C(=O)O)n(C)c3c-2c(Cl)ccc13 [AZD5991] + CC1(C)CCC(CN2CCN(c3ccc(C(=O)NS(=O)(=O)c4ccc(NCC5CCOCC5)c([N+](=O)[O-])c4)c(Oc4cnc5[nH]ccc5c4)c3)CC2)=C(c2ccc(Cl)cc2)C1 [Venetoclax] (first compound max 1 µM, 7x7, partner max 1 µM)	AU565 (Breast Carcinoma)	1

Now examine the next entry.
Exam item: Consider the molecule COc1cccc(OCCCN)c1-c1cc(Nc2cnc(C#N)cn2)n[nH]1 [Prexasertib] + O=C(c1cc(Cc2n[nH]c(=O)c3ccccc23)ccc1F)N1CCN(C(=O)C2CC2)CC1 [Olaparib] (first compound max 1 µM, 7x7, partner max 10 µM) and give its measured combination Emax.
Marked response: 0.735
